tested on: Leishmania donovani; test: Antiproliferative activity against Leishmania donovani DI700 promastigotes in presence of 100 uM spermidine; assay type: functional, organism-based
pEC50: −log10 of the molar value.
READOUT NAME: pEC50

• N=C(N)c1ccc(OCCCCCOc2ccc(C(=N)N)cc2)cc1 [PENTAMIDINE] = 5.70
• CC(/C=N/NC(=N)N)=N\NC(=N)N [MITOGUAZONE] = 2.74
• N=C(N)c1ccc(/N=N/Nc2ccc(C(=N)N)cc2)cc1 [DIMINAZENE] = 5.01
• NCCC[C@](N)(C(=O)O)C(F)F [EFLORNITHINE, (S)-] = 3.89
